- Test system: HCC-2998 colon
- experiment-description: NCI tumour cell line growth inhibition, 48 h
Provide the reported TGI of each item.

{"columns": ["line-notation", "TGI"],
 "data": [
  ["CC[O-].CC[O-].[O-]c1ccccc1C=NC12CC3CC(CC(C3)C1)C2.[O-]c1ccccc1C=NC12CC3CC(CC(C3)C1)C2.[Ti+4]", "> 100 µM"],
  ["CC1=C[C@H](C[C@]2(C)c3c(c4c(C)cccc4oc3=O)O[C@@H]2C)OC1=O", "> 100 µM"]
]}

input: Please give the documented TGI of `C[C@]12CCC(=O)C=C1CC[C@@H]1[C@@H]2CC[C@]2(C)C(=O)/C(=C/c3ccc([N+](=O)[O-])cc3)C[C@@H]12`
output: > 100 µM

The origin of these recorded values is PubChem BioAssay (NCI).
